Data origin, for the record: patent US8519149B2

STUDY SYSTEM: Recombinant human mPGES-1 (Homo sapiens, UniProt O14684)
Sequence (O14684 whole entry): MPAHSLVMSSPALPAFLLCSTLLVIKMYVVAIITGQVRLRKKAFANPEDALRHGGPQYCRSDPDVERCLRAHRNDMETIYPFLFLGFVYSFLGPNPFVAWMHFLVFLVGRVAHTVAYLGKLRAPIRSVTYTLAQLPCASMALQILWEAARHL
ASSAY PROTOCOL: In-vitro mPGES-1 enzyme inhibition assay (PGE2 formation from PGH2, HTRF detection)
Type: biochemical
PARTICULARS: 10 μM test compound; recombinant human mPGES-1 microsomal fraction; read-out: Percentage inhibition at 10 μM

MOLECULE	inhibition at 10 µM / %
CC(O)CNC(=O)c1cc2nc(Nc3c(Cl)cccc3Cl)[nH]c2c2c1OC(C)(C)C2 (stereo not shown)	72.3
Cc1cccc(Cl)c1Nc1nc2cc(C(=O)Nc3c(F)cc(F)cc3F)c3c(c2[nH]1)CC(C)(C)O3	98.8
CC1(C)Cc2c(c(C(=O)Nc3cccc(C(F)(F)F)c3)cc3nc(NCc4ccccc4Cl)[nH]c23)O1	46
Cc1cc2c(o1)c(C(=O)Nc1ccc(C(F)(F)F)cc1)cc1nc(Nc3c(Cl)cncc3Cl)[nH]c12	100
CC1(C)Cc2c(c(C(=O)Nc3ccc(C(C)(C)C)cc3)cc3nc(Nc4c(F)cccc4Cl)[nH]c23)O1	99.1
Cc1nnc(NC(=O)c2cc3nc(Nc4c(Cl)cccc4Cl)[nH]c3c3c2OC(C)(C)C3)s1	81.5
CC1(C)Cc2c(c(C(=O)Nc3ccc(C(F)(F)F)cc3F)cc3nc(Nc4c(F)cccc4Cl)[nH]c23)O1	96.2
Cc1ccc(Nc2nc3cc(C(=O)Nc4ccc(C(F)(F)F)cc4)c4c(c3[nH]2)CC(C)(C)O4)c(Cl)c1	92.2
CC1(C)Cc2c(c(C(=O)NCC3CC3)cc3nc(Nc4c(Cl)cncc4Cl)[nH]c23)O1	99.8
CC1(C)Cc2c(c(-c3nc(-c4ccc(F)c(Cl)c4)no3)cc3nc(Nc4c(Cl)cccc4Cl)[nH]c23)O1	88

* * *

STUDY SYSTEM: Recombinant human mPGES-1 (Homo sapiens, UniProt O14684)
ASSAY PROTOCOL: In-vitro mPGES-1 enzyme inhibition assay (PGE2 formation from PGH2, HTRF detection)
PARTICULARS: class symbols; selected examples
pIC50: −log10 of the molar value.
ASSAY READOUT: pIC50

MOLECULE	RECORDED RESULT
Cc1ccnc(Cl)c1Nc1nc2cc(C(=O)Nc3cccc(C(F)(F)F)c3)c3c(c2[nH]1)CC(C)(C)O3 [Example-137]	> 7.30
CC1(C)Cc2c(c(C(=O)Nc3cc(C(F)(F)F)ccc3F)cc3nc(Nc4c(Cl)cncc4Cl)[nH]c23)O1 [Example-195]	> 7.30
CC1(C)Cc2c(c(C(=O)Nc3cc(C4CC4)ccc3F)cc3nc(Nc4c(Cl)cccc4Cl)[nH]c23)O1 [Example-159]	> 7.30
CC1(C)Cc2c(c(C(=O)Nc3cc(F)c(F)cc3F)cc3nc(Nc4c(Cl)cccc4Cl)[nH]c23)O1 [Example-141]	> 7.30
CC1(C)Cc2c(c(C(=O)Nc3ccccc3C(F)(F)F)cc3nc(Nc4ccccc4Cl)[nH]c23)O1 [Example-79]	7.00 to 7.30
Cc1ccc(NC(=O)c2cc3nc(Nc4c(F)cccc4Cl)n(C)c3c3c2OC(C)(C)C3)c(F)c1 [Example-154]	> 7.30

* * *

STUDY SYSTEM: Recombinant human mPGES-1 (Homo sapiens)
ASSAY PROTOCOL: In-vitro mPGES-1 enzyme inhibition assay (PGE2 formation from PGH2, HTRF detection)
Format: biochemical
PARTICULARS: 10 μM test compound; recombinant human mPGES-1 microsomal fraction; read-out: Percentage inhibition at 10 μM
Recorded inhibition at 10 µM for the following compounds

COMPOUND	inhibition at 10 µM [%]
CC1(C)Cc2c(c(C(=O)NCc3ccc(F)cc3C(F)(F)F)cc3nc(Nc4c(F)cccc4Cl)[nH]c23)O1 [Example-129]	97.1
CC1(C)Cc2c(c(C(=O)Nc3cccc(C4CC4)c3)cc3nc(Nc4c(F)cccc4Cl)[nH]c23)O1 [Example-165]	98.1
Cc1cnc(NC(=O)c2cc3nc(Nc4c(Cl)cccc4Cl)[nH]c3c3c2OC(C)(C)C3)s1 [Example-40]	94.6
CC1(C)Cc2c(c(C(=O)Nc3ccc(OC(F)F)nc3)cc3nc(Nc4c(F)cccc4Cl)[nH]c23)O1 [Example-115]	100
CC1(C)Cc2c(c(C(=O)NCc3ccccc3C(F)(F)F)cc3nc(Nc4c(F)cccc4Cl)[nH]c23)O1 [Example-80]	92
CC1(C)Cc2c(c(C(=O)Nc3ccc(F)cc3F)cc3nc(Nc4c(Cl)cncc4Cl)[nH]c23)O1 [Example-197]	99.5
Cn1c(Nc2c(Cl)cncc2Cl)nc2cc(C(=O)NCC3CC3)c3c(c21)CC(C)(C)O3 [Example-220]	99.8
CC(C)(C)CC(C)(C)NC(=O)c1cc2nc(Nc3c(F)cccc3Cl)[nH]c2c2c1OC(C)(C)C2 [Example-52]	96
Cc1nc2c(o1)c(C(=O)Nc1ccc(F)cc1)cc1nc(Nc3c(Cl)cccc3Cl)[nH]c12 [Example-177]	89.4
CC1(C)Cc2c(c(C(=O)Nc3ccc(OCC4CC4)nc3)cc3nc(Nc4c(F)cccc4Cl)[nH]c23)O1 [Example-125]	76.7
